The reported measurements were obtained from PubChem BioAssay (NCI).

assay: NCI Yeast Anticancer Drug Screen. Data for the CLN2oe strain (AID 163);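 further: 0% = growth of vehicle-only control cultures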; conditions: S. cerevisiae CLN2oe strain, at 100.0 µM
The panel holds about 79,000 compounds, 15% with a hit somewhere; the sample as a whole holds those more often. Activity calls are given as the source filed them. No stated cut-off is given here; in the data, active means growth inhibition above about 70%; inactive means the rest.
I would appreciate it if you answered using one of these outcomes: active, inactive

Consider the worked cases shown below.
query: Kindly provide the recorded test outcome for the following compound: `CCCCCCCN1C(=O)c2ccccc2C1=O`
result: inactive

query: Kindly provide the recorded test outcome for the following compound: CCN1CCC(O)(c2ccc(Oc3ccc(Cl)cc3)cc2)C(C(=O)c2ccc(Oc3ccc(Cl)cc3)cc2)C1 (stereo not given)
result: inactive

query: Kindly provide the recorded test outcome for the following compound: `O=S1(=O)CCC2=CC(C(F)(F)F)=CC(C(F)(F)F)=CN21`
result: active

query: Kindly provide the recorded test outcome for the following compound: `Cc1ccc(C)c(C(=N)c2ccccc2Cc2ccccc2)c1`
result: active

Note: attention shifts to another entry.
query: Kindly provide the recorded test outcome for the following compound: `COC(=O)/C(C#N)=C\NC(=S)C(N)=S`
result: active

---

test: NCI Yeast Anticancer Drug Screen. Data for the rad50 strain (AID 155);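 further: 0% = growth of vehicle-only cultures of the same strain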; settings: S. cerevisiae rad50 strain growth inhibition; at 33.0 µM; stronger effect = higher value
This is part of a sample that, as a whole, favours compounds with a hit. Of some 79,000 tested, about 15% had one in any assay.
value-kind: growth inhibition (%)
Kindly provide the numeric value in % only, without the unit symbol.

Before answering, review these 8 worked examples.
So for `CCCCCCNCCCNc1c2ccccc2nc2cccc([N+](=O)[O-])c12` , the logged growth inhibition turned out to be 94

So for `CNC(=O)OCc1c(COC(=O)NC)c(C)n(-c2ccc(Br)cc2)c1C` , the logged growth inhibition turned out to be -2

So for `CN(C)N=Nc1ccc(N(C)C)cc1` , the logged growth inhibition turned out to be 5

So for `Cc1cccc2c(Cl)c3cccc(C)c3nc12` , the logged growth inhibition turned out to be 44

So for `O=C(CN(c1ccccc1)c1ccccc1)n1nnc2ccccc21` , the logged growth inhibition turned out to be 28

So for `COC(=O)C(=O)c1c(-c2ccc(Cl)c(Cl)c2)[nH]c2[nH]n(-c3ccccc3)c(=O)c2c1=O` , the logged growth inhibition turned out to be 40

So for C/C(=N\OCC(O)CNCCSCc1ccccc1)c1ccccc1Cl (stereo not given) , the logged growth inhibition turned out to be 77

So for `COC(=O)C(Cl)(Cl)N=Nc1c(Cl)cc(Cl)c(C)c1Cl` , the logged growth inhibition turned out to be 92

Others:
So for `O=[N+]([O-])/C=C/c1cc2ccc3ccccc3c2[nH]1` , the logged growth inhibition turned out to be 83

So for `CCN(CC)CCNc1ccc(C)c2sc3ccc(O)cc3c(=O)c12` , the logged growth inhibition turned out to be 98

So for `CCCCCCCCCCCCOCCOCCOCC(N)=O` , the logged growth inhibition turned out to be 97

So for `c1ccc2nc3c(nc2c1)sc1ccccc13` , the logged growth inhibition turned out to be 91

So for `Nc1ccc(/C=C/c2ccc3cccnc3c2)cc1` , the logged growth inhibition turned out to be 14

So for `O=C1C(=O)c2cccc([N+](=O)[O-])c2-c2ccccc21` , the logged growth inhibition turned out to be 99

So for C=CC(C)(C)N1C(=O)C(C(C)=O)=C(O)C1Cc1c[nH]c2ccccc12 (stereo not given) , the logged growth inhibition turned out to be 10
